- Tested on: P388 leukemia ip, CD2F1 mice, survival T/C
- testName: NCI In Vivo Anticancer Drug Screen. Data for tumor model P388 Leukemia (intraperitoneal) in CD2F1 (CDF1) mice
- assaySetup: endpoint: median survival time; dose: 200.0 mg/kg/injection; schedule: Q01DX005 (ip); vehicle: Klucel (hydroxypropylcellulose) (HPC); higher = longer survival
Toxic doses and inconclusive results are not listed. Square brackets hold non-standard residues; d marks the D form. Peptide text beside a SMILES is read from it. * marks the point of attachment. ξ: configuration not given here. Cbz = O=C(OCc1ccccc1)*; ξNva = CCCC(N)C(=O)O; OBn = c1ccc(CO*)cc1; OtBu = CC(C)(C)O*
observationType: T/C

>  <compound>
COc1ccc(C2CN(C(=O)c3ccccc3)N=C(c3ccccc3)O2)cc1 (configuration not stated)

>  <T/C>
94 % of control

$$$$
>  <compound>
CC(C)(O)c1cc(=O)n(-c2ccccc2)[nH]1

>  <T/C>
105 % of control

$$$$
>  <compound>
O=c1ccnc(Nc2ccc[nH]c2=S)[nH]1

>  <T/C>
93 % of control

$$$$
>  <compound>
Cc1nc(N)c2[nH]cnc2n1

>  <T/C>
99 % of control

$$$$
>  <compound>
C[C@@H]1C(=O)OCC2=C3C[C@@H](CC[C@@]3(C)C=CC2=O)[C@H](C)C(=O)OCC2=C3C[C@H]1CC[C@@]3(C)C=CC2=O

>  <T/C>
95 % of control

$$$$
>  <compound>
O=C(Nc1cccc(NC(=O)c2nn[nH]n2)n1)c1nn[nH]n1

>  <T/C>
99 % of control

$$$$

Query :: Consider the compound CCOC(=O)C1Cc2c(n(C3CCCCC3)c(=O)n(C)c2=O)OC1c1ccccc1 (configuration not stated) and give its measured T/C.
Result :: 90 % of control

Query :: For the compound CCCC(NC(=O)OCc1ccccc1)C(=O)NCC(=O)NCC(=O)OC (stereo not drawn) (Cbz-[ξNva]-Gly-Gly-OMe) , what T/C is on record?
Result :: 113 % of control

Query :: Recorded T/C of NCCCCC(NC(=O)OCc1ccccc1)C(=O)NC(CCCCN)C(=O)NC(CCCCN)C(=O)NC(Cc1c[nH]c2ccccc12)C(=O)OCc1ccccc1 (configuration not stated) (Cbz-KKKW-OBn; configuration not given here) , please.
Result :: 100 % of control

Query :: Reported T/C, compound CCOC(=O)Nc1nc2ccccc2n1CN1CCCC1 : ____
Result :: 117 % of control

Query :: What value of measured T/C is listed for Cc1ccc2nc3[nH]c(=O)[nH]c(=O)c3c(C(N)=O)c2c1 ?
Result :: 94 % of control

Query :: Which T/C reading was recorded for the compound CSC1=NN(C(C)=O)C(c2ccncc2)S1 (configuration not stated) ?
Result :: 92 % of control

Query :: # lookup: T/C of CCOC(=O)NC(C(=O)N(C(=O)NC1CCCCC1)C1CCCCC1)C(C)C (configuration not stated)
Result :: 90 % of control

Query :: # query: T/C of entry CC(C)CC(NC(=O)C1CCCN1)C(=O)NC(CC(C)C)C(=O)OC(C)(C)C (stereo not drawn) (H-Pro-Leu-Leu-OtBu; configuration not given here)
Result :: 96 % of control

Query :: Given the compound Cc1nc2ccccc2c2c(N)cccc12 , what is its reported T/C?
Result :: 105 % of control

Query :: I am curious: what T/C value has been reported for COc1cccc2sc(-c3ccccc3)cc(=O)c12 ?
Result :: 96 % of control

Query :: Sample COc1ccc2c(c1)c(COC(C)=O)c(COC(C)=O)c[n+]2[O-] — what was its T/C?
Result :: 94 % of control

Query :: Data request, read-out T/C, for CC1=C([N+](=O)[O-])[C@@H](N2CCOCC2)[C@](C)(N2CCOCC2)S1
Result :: 105 % of control

Query :: Looking for the measured T/C of CC(=O)C(C)C(C)=NCCN=C(C)C(C)C(C)=O (configuration not stated) , can you help?
Result :: 103 % of control
